Ref: patent US20260327191A1

biological target: GSK3B (Homo sapiens); test: In vitro enzymatic activity assay, GSK3β; assay type: biochemical; design: Full length human GSK3α or GSK3B expressed as N-terminal GST fusion proteins; GST (N); purchased Carna Biosciences (Japan); host or cells: baculovirus host; conditions: 1.0 mM ATP, 1.0 μM peptide substrate, 120 min, 25° C, read-out: Enzyme GSK3β (IC50)
pIC50: −log10 of the molar value. Where a name gives a salt, the structure may show the parent alone.
Property: pIC50

# Compound, Reported Measurement
data = [
    ("CCNCc1cncc(NC(=O)c2c(N)ncn(-c3c(Cl)cc(CC(F)(F)F)cc3Cl)c2=O)c1", 6.36),
    ("Cc1cc(F)cc(C)c1-n1cnc(N)c(C(=O)Nc2cncc([C@H]3CCCCN3)c2)c1=O [Example 161, trifluoroacetate]", 6.42),
    ("CCCOc1cc(Cl)c(-n2cnc(N)c(C(=O)Nc3cncc(CNCC)c3)c2=O)c(Cl)c1", 6.38),
    ("COc1ccccc1-n1cnc(N)c(C(=O)Nc2cccc(C3CCCN3)c2N2CCOCC2)c1=O (single isomer, unassigned)", 5.03),
    ("Nc1ncn(-c2c(Cl)cc(C(F)(F)F)cc2Cl)c(=O)c1C(=O)Nc1cncc(CNCCO)c1", 6.47),
]

a. CNC(C)c1cncc(NC(=O)c2c(N)ncn(-c3c(Cl)cc(OC)cc3Cl)c2=O)c1 (single isomer, unassigned) [Example 19]
b. COc1cc(Cl)c(-n2cnc(N)c(C(=O)Nc3cncc([C@]4(N)CCCOC4)c3)c2=O)c(Cl)c1 (single isomer, unassigned) [Example 188]
c. COc1cc(Cl)c(-n2cnc(N)c(C(=O)Nc3cncc(C4CCC(C)N4)c3)c2=O)c(Cl)c1 (single isomer, unassigned) [Example 78]
Qu. Ranking field: pIC50; order: falling. Please respond with the labels ordered as the question requires.
Ans. a, b, c
(a: 6.64, b: 6.34, c: 6.02)

I. COc1cc(C)c(-n2cnc(N)c(C(=O)N[C@@H]3CCC[C@H](CN)C3)c2=O)c(Cl)c1 (single isomer, unassigned)
II. COc1cc(Cl)c(-n2cnc(N)c(C(=O)Nc3cncc([C@@H]4COCCCN4)c3)c2=O)c(Cl)c1 (single isomer, unassigned)
III. CCNCc1cccc(NC(=O)c2c(N)ncn(-c3c(C)cc(C(F)F)cc3Cl)c2=O)c1 (atropisomer, axis not shown)
Qu. Please give the order of these compounds when sorted by pIC50, largest value leading. List the labels according to the requested ordering.
Ans. II, I, III
(II: 6.97, I: 6.59, III: 6.19)

====

target: GSK3B (Homo sapiens, UniProt P49841); assay: In vitro enzymatic activity assay, GSK3β; type: biochemical; design: Full length human GSK3α or GSK3B expressed as N-terminal GST fusion proteins; GST (N); purchased Carna Biosciences (Japan); host or cells: baculovirus host; details: 1.0 mM ATP, 1.0 μM peptide substrate, 120 min, 25° C, read-out: Enzyme GSK3β (IC50)
Sequence (P49841 whole entry, the tested form may be a part): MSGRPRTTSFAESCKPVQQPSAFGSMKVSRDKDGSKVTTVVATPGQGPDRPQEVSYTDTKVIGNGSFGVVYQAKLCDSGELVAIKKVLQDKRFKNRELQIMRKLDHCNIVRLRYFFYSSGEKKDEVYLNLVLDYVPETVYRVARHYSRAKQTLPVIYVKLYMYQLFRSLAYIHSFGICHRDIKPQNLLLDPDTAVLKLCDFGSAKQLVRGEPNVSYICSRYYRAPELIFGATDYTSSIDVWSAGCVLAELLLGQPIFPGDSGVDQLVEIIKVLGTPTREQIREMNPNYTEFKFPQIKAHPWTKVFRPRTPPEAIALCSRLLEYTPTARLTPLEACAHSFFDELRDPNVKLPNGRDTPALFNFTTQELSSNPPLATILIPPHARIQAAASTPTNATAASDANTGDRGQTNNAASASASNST
Property: IC50 (nM)

Example entries and their recorded answers appear below.
# Compound, U, Reported Measurement
measured = [
    ("Cc1cc(CS(C)(=O)=O)cc(C)c1-n1cnc(N)c(C(=O)Nc2cncc([C@H]3CCCCN3)c2)c1=O", "nM", 355),
    ("CCOc1cc(Cl)c(-n2cnc(N)c(C(=O)Nc3cncc([C@@H]4CCCCN4)c3)c2=O)c(Cl)c1", "nM", 508),
    ("COc1cc(C)c(-n2cnc(N)c(C(=O)Nc3cccc(C4(N)CCC4)c3)c2=O)c(Cl)c1", "nM", 282),
    ("CC(C)Oc1cc(Cl)c(-n2cnc(N)c(C(=O)Nc3cncc([C@@H]4CCCCN4)c3)c2=O)c(Cl)c1", "nM", 393),
    ("CCOc1cc(C)c(-n2cnc(N)c(C(=O)Nc3cncc([C@H]4CCCCN4)c3)c2=O)c(C)c1", "nM", 299),
]

1. COc1cc(C)c(-n2cnc(N)c(C(=O)Nc3cccc([C@@H]4CCCN4)c3)c2=O)c(Cl)c1 (atropisomer, axis not shown)
2. Cc1cc(CC(F)F)cc(C)c1-n1cnc(N)c(C(=O)Nc2cncc(C(C)N)c2)c1=O (single isomer, unassigned)
Qu. Could you tell me which of these two has the smaller IC50 figure? First: 1 Second: 2 I would appreciate it if you answered with the label of your choice.
Ans. 1
(1: 302 nM, 2: 472 nM)

====

target: GSK3B (Homo sapiens); assay: NanoBRET cellular target engagement assay, Nanoluc-GSK3B in HEK293 cells; format: cell-based; parameters: expressed in transfected cells; conditions: NanoBRET GSK3β IC50, HEK293 cells, tracer K-8, 2 hours, 37° C
Property: IC50 (nM)

Example cases with answers are listed next.
# Compound, Target Desc, IC50 / nM
data = [
    ("COc1cc(C)c(-n2cnc(N)c(C(=O)Nc3cncc(C4CCCCCN4)c3)c2=O)c(C)c1 (single isomer, unassigned)", "GSK3B (Homo sapiens)", 356),
    ("COc1cc(Cl)c(-n2cnc(N)c(C(=O)Nc3cncc(C4CCC(C)N4)c3)c2=O)c(Cl)c1 (single isomer, unassigned) [Example 79]", "GSK3B (Homo sapiens)", 170),
    ("CN[C@H](C)c1cccc(NC(=O)c2c(N)ncn(-c3c(C)cccc3Cl)c2=O)c1 (atropisomer, axis not shown)", "GSK3B (Homo sapiens)", 395),
    ("COC[C@@H](N)c1cncc(NC(=O)c2c(N)ncn(-c3c(Cl)cc(OC)cc3Cl)c2=O)c1", "GSK3B (Homo sapiens)", 196),
    ("Cc1cc(C(F)CF)cc(C)c1-n1cnc(N)c(C(=O)Nc2cncc([C@H]3CCCCN3)c2)c1=O (single isomer, unassigned)", "GSK3B (Homo sapiens)", 107),
]

P. CC(C)Oc1cc(Cl)c(-n2cnc(N)c(C(=O)Nc3cncc([C@@H]4CCCCN4)c3)c2=O)c(Cl)c1
Q. CCNCc1cncc(NC(=O)c2c(N)ncn(-c3c(Cl)cc(COC)cc3Cl)c2=O)c1
Qu. Short answer wanted: higher IC50, P or Q ? Respond using the label that marks the chosen record.
Ans. P

P. CN[C@H](C)c1cccc(NC(=O)c2c(N)ncn(-c3c(C)cc(C(F)(F)F)cc3Cl)c2=O)c1 (atropisomer, axis not shown)
Q. C[C@@H](N)c1cncc(NC(=O)c2c(N)ncn(-c3c(Cl)cc(C(F)F)cc3Cl)c2=O)c1 (single isomer, unassigned)
Qu. // select label with min value of measured IC50 from [ P , Q ] Respond using the label that marks the chosen record.
Ans. Q
(Q: 277 nM, P: 461 nM)

a. CCC(N)c1cncc(NC(=O)c2c(N)ncn(-c3c(Cl)cncc3Cl)c2=O)c1 (single isomer, unassigned)
b. COc1cc(Cl)c(-n2cnc(N)c(C(=O)Nc3cncc([C@H]4CCC[C@H](C)N4)c3)c2=O)c(Cl)c1 (single isomer, unassigned) [Example 84]
c. CNCc1cncc(NC(=O)c2c(N)ncn(-c3c(Cl)cc(C(F)CF)cc3Cl)c2=O)c1 (single isomer, unassigned) [Example 117]
d. COCc1cc(C)c(-n2cnc(N)c(C(=O)Nc3cncc(C4CCC(C)N4)c3)c2=O)c(C)c1 (single isomer, unassigned)
Qu. // sort entries: IC50, high to low Reply format: the labels, ordered as requested.
Ans. d, a, b, c

I. Nc1ncn(-c2c(Cl)cc(OC(F)F)cc2Cl)c(=O)c1C(=O)Nc1cccc([C@@H]2CCCN2)c1
II. CCOc1cc(C)c(-n2cnc(N)c(C(=O)Nc3cncc(C4CCC(C)N4)c3)c2=O)c(C)c1 (single isomer, unassigned) [Example 93]
III. COCc1cc(C)c(-n2cnc(N)c(C(=O)Nc3cncc(C4CNC(=O)CN4)c3)c2=O)c(C)c1 (single isomer, unassigned) [Example 160]
IV. COC(=O)c1cc(Cl)c(-n2cnc(N)c(C(=O)Nc3cncc([C@@H]4CCCCN4)c3)c2=O)c(Cl)c1
Qu. Order the records, beginning with the lowest IC50 and ending with the highest. Give me the labels in the order the question wants.
Ans. IV, I, II, III

====

biological target: UniProt:P49841; assay: NanoBRET cellular target engagement assay, Nanoluc-GSK3B in HEK293 cells; type: cell-based; design: expressed in transfected cells; conditions: NanoBRET GSK3β IC50, HEK293 cells, tracer K-8, 2 hours, 37° C
pIC50: −log10 of the molar value.
Property: pIC50

# Compound, Target Desc, pIC50
measured = [
    ("Nc1ncn(-c2c(Cl)cccc2Cl)c(=O)c1C(=O)Nc1cccc([C@@H]2COCCCN2)c1 (single isomer, unassigned) [Example 211]", "UniProt:P49841", 6.10),
    ("COCc1cc(Cl)c(-n2cnc(N)c(C(=O)Nc3cncc([C@@H](C)N)c3)c2=O)c(Cl)c1 (single isomer, unassigned) [Example 66]", "UniProt:P49841", 6.69),
]

A. Nc1ncn(-c2c(Cl)cccc2Cl)c(=O)c1C(=O)Nc1cccc(C2CCCN2)c1F (single isomer, unassigned) [Example 168]
B. CCOc1cc(Cl)c(-n2cnc(N)c(C(=O)Nc3cncc(CNCCO)c3)c2=O)c(Cl)c1 [Example 26]
Qu. Pick one: A or B . Which one has the lower reported pIC50? Respond with the label that goes with your answer.
Ans. A

P. COc1cc(Cl)c(-n2cnc(N)c(C(=O)Nc3cncc([C@@H]4NC[C@H]5CCC[C@H]54)c3)c2=O)c(Cl)c1 (single isomer, unassigned) [Example 32]
Q. COCc1cc(C)c(-n2cnc(N)c(C(=O)Nc3cncc([C@H]4CCC[C@H](C)N4)c3)c2=O)c(C)c1 (single isomer, unassigned) [Example 102]
Qu. Which numeric pIC50 is bigger, that of P or that of Q ? Could you answer with the label of the item you picked?
Ans. P
(P: 6.80, Q: 6.23)

a. COC[C@@H](N)c1cccc(NC(=O)c2c(N)ncn(-c3c(C)cc(OC)cc3Cl)c2=O)c1 (atropisomer, axis not shown) [Example 1]
b. COc1cc(Cl)c(-n2cnc(N)c(C(=O)Nc3cncc(CNC(C)C)c3)c2=O)c(Cl)c1 [Example 20]
Qu. Which value of pIC50 is smaller, the one for a or the one for b ? Mark your selection by writing its label.
Ans. b
